Data provenance: ChEMBL document CHEMBL1201862

Test system: 786-0
Assay info: NCI tumour cell line growth inhibition, 48 h
Active and inactive are the calls of the source. Rule as the data show it: active = GI50 up to about 1.1 µM and inactive = higher.
I'd appreciate it if you could supply GI50 values for the items below.

Solved cases (3 shown):
Molecule | Endpoint label | Result
Cc1ccc(S(=O)(=O)N2CCC3(C(/C=C/c4ccccc4)=Nc4ccccc43)C2c2ccccc2)cc1 (stereo not drawn) | GI50 | > 100 µM (inactive)
Cc1ccc(N/C(SCc2ccccc2)=C(\C(Cl)=C(Cl)Cl)[N+](=O)[O-])c(C)c1 | GI50 | 23.6 µM (inactive)
CC1(C)N=C(C2CCCN2C(=O)OCc2ccccc2)OC1=O (stereo not drawn) | GI50 | > 100 µM (inactive)

Fill in GI50 for each of the 7 molecules listed.
1. COc1ccc2c(c1)CCC(CN1CCN(CCOC(c3ccc(F)cc3)c3ccc(F)cc3)CC1)=C2
2. COc1ccc2nc3cc(Cl)ccc3c(Sc3ccc([N+](=O)[O-])cc3C)c2c1
3. NCCCNC1(c2cc3ccccc3s2)CCCCC1
4. CC1(C)OC(CCO)CN1C(=O)OCc1ccccc1 (stereo not drawn)
5. NC(=O)CC(/N=C1\C(=O)OC(C(O)CO)\C1=N/C(CC(N)=O)C(=O)O)C(=O)O (stereo not drawn)
6. Cc1c(Cl)nc(Cl)nc1Cl
7. CCOC(=O)N1CCc2cc(OC)c(OC)c3c2C1CC3=O (stereo not drawn)

-- reply
11.9 µM (inactive)
> 100 µM (inactive)
2 µM (inactive)
> 100 µM (inactive)
> 100 µM (inactive)
1.48 µM (inactive)
> 100 µM (inactive)

// input: 7 molecules below; output: GI50 for each
1. COc1ccc(NC(=O)CC(=O)n2nc(C)c(/N=N/c3ccccc3C(=O)O)c2C)cc1
2. COc1ccc(-c2[nH]c3ccccc3c2CCNS(=O)(=O)c2ccc(C)cc2)cc1
3. Cc1cc2ccccc2n1CC(=O)N1CCCC1
4. COc1cc2oc(=O)cc(C)c2c(OC)c1OC(C)=O
5. Oc1ccc(-c2csc(N/N=C3\NC/C(=C/c4ccc5c(c4)OCO5)S3)n2)cc1O
6. CC1CCCCc2nc3c(c(=O)n21)CCCC3 (stereo not drawn)
7. COc1ccc2nc3cc(Cl)ccc3c(NCCCNCc3cc(OC)c(OC)c(OC)c3)c2c1

-- reply
77.3 µM (inactive)
> 10 µM (inactive)
> 100 µM (inactive)
> 100 µM (inactive)
30.6 µM (inactive)
> 100 µM (inactive)
1.4 µM (inactive)

-- ask Given the entry CCCC1CC(=O)NC(=O)C1C(=O)OC(C)(C)C (stereo not drawn) , report its measured GI50.
-- reply > 100 µM (inactive)

---

System: T47D
Assay info: NCI tumour cell line growth inhibition, 48 h
Activity calls are given as the source filed them. Rule as the data show it: active = GI50 up to about 1.1 µM and inactive = higher.
Please provide measured GI50 for the entries that follow.

Smiles input | GI50
COc1ccc2c(c1)CCC(CN1CCN(CCOC(c3ccc(F)cc3)c3ccc(F)cc3)CC1)=C2 | 8.45 µM (inactive)
O=C1NC(=O)/C(=C/c2ccc(S(=O)(=O)N/N=C/c3ccccc3)cc2)N1 | > 100 µM (inactive)
Nc1nc(=S)[nH]c2nc3c(c(-c4ccccc4)c12)CCCC3 | 60.1 µM (inactive)
O=C(O)Cc1cccc2c(=O)c3cccc([N+](=O)[O-])c3[nH]c12 | > 100 µM (inactive)

Here is another compound to look at.
-- ask Recorded GI50 of `Cn1cc(C(=O)c2nccc3c2cnc2ccccc23)ccc1=O` , please.
-- reply > 100 µM (inactive)

---

System: SF-295
Assay info: NCI tumour cell line growth inhibition, 48 h
The source made the active and inactive calls. No stated cut-off is given here; in the data, active = GI50 up to about 1.1 µM and inactive = higher.
Endpoint label: GI50

Compound | GI50
O=c1c2cc(I)ccc2nc(-c2cccs2)n1-c1ccc(O)cc1 | 12.6 µM (inactive)
CC1CCCCc2nc3c(c(=O)n21)CCCC3 (stereo not given) | > 100 µM (inactive)
O=S(=O)(c1ccc(Br)cc1)n1c2ccc(Br)cc2c2nc3ccccc3nc21 | 68.1 µM (inactive)
NS(=O)(=O)c1ccc(NC(NC(=O)C(C(F)(F)F)C(F)(F)F)(C(F)(F)F)C(F)(F)F)cc1 | > 100 µM (inactive)
COc1ccc2nc3cc(Cl)ccc3c(Sc3ccc([N+](=O)[O-])cc3C)c2c1 | > 100 µM (inactive)

Quick one: give me GI50 for each item below, same order please.
1. CCOC(=O)c1cnc2[nH]c(=O)c3ccccc3n2c1=O
2. COC(=O)OCC1OC(N2C(=O)NC(=O)C(Br)C2N=[N+]=[N-])CC1OC(=O)OC (stereo not given)
3. CCCCN=C(OC1C=CCCC1)SC (stereo not given)
4. O=C(O)C1Cc2c([nH]c3ccccc23)C=N1 (stereo not given)

-- reply
["> 100 µM (inactive)", "> 100 µM (inactive)", "> 100 µM (inactive)", "> 100 µM (inactive)"]

---

Can you tell me GI50 for the items I'm about to list?
Tested on: EKVX
Assay info: NCI tumour cell line growth inhibition, 48 h
The source made the active and inactive calls. No stated cut-off is given here; in the data, active = GI50 up to about 1.1 µM and inactive = higher.

Molecule | Measurement target | GI50
Sc1nn2c(Cc3ccccc3)nnc2s1 | EKVX | > 100 µM (inactive)

Dear colleague, could you please provide GI50 for the molecules listed below?
1. Cc1c2c(n(CCc3ccccc3)c1C)N(C)N=C(C#N)S2(=O)=O
2. Cc1ccc(N/C(SCc2ccccc2)=C(\C(Cl)=C(Cl)Cl)[N+](=O)[O-])c(C)c1
3. Cc1ccc2[nH]c3c(c2c1)C1CCC(C(C)(C)C)CC1C1C(=O)N(c2ccc(Oc4ccccc4)cc2)C(=O)C31 (centres undefined)

-- reply
> 100 µM (inactive)
33.4 µM (inactive)
27 µM (inactive)

---

Tested on: U-251
Assay info: NCI tumour cell line growth inhibition, 48 h
Calls of active or inactive are those of the source. Rule as the data show it: active = GI50 up to about 1.1 µM and inactive = higher.
Endpoint label: GI50

Compound | GI50
C[N+]1([O-])CCC(O)(C2CC2)CC1 (centres undefined) | > 100 µM (inactive)
O=Cc1ccc(-c2ccc(-c3ccc(CO)s3)o2)s1 | 1.91 µM (inactive)
COC(=O)c1c(CC#N)cccc1CC#N | > 100 µM (inactive)

# map each compound to its GI50
1. CCCCC1Cc2cc(O)ccc2-c2nc3cc(O)ccc3n21.CCCCC1Cc2cc(O)ccc2-c2nc3ccc(O)cc3n21 (centres undefined)
2. COCOCC[C@@H]1CC=CC(NC(=O)OCc2ccccc2)C1/C=C/C(=O)CCC1OCCO1 (some centres undefined)
3. COC1=CC(=O)c2ccccc2C1(CCC=C(C)C)C1=NC(C)(C)CO1 (centres undefined)
4. CC(=O)NC(C)(C)C1CC=C(C)CC1 (centres undefined)
5. COC1CCC(OS(C)(=O)=O)CO1 (centres undefined)
6. CC1(C)OC(CCO)CN1C(=O)OCc1ccccc1 (centres undefined)
7. Cc1c(Cl)nc(Cl)nc1Cl
8. Cc1c2ccccc2cc2nc3ccccc3n12

-- reply
1. 14.4 µM (inactive)
2. 25.7 µM (inactive)
3. 80.4 µM (inactive)
4. > 100 µM (inactive)
5. > 100 µM (inactive)
6. > 100 µM (inactive)
7. 1.77 µM (inactive)
8. > 10 µM (inactive)

// for each compound in input: emit GI50
1. Cc1cc(-n2c(/C=C/c3ccc(Cl)cc3)nc3cc(Cl)ccc3c2=O)on1
2. O=C(O)Cc1ccc2nc(COC(=O)c3ccccc3)sc2c1
3. CCN(CC)CCCOc1cc2c(cc1OC)C(=O)N1CCC[C@H]1C=N2
4. CC1=C2CC(C)(C)CC(=O)C2(C)CCC1=O (centres undefined)
5. O=c1c(-c2ccccc2F)coc2cc(F)ccc12
6. COc1ccc2cc(-c3ccc(OC)c(OC)c3)c(=O)oc2c1

-- reply
1. 6.4 µM (inactive)
2. > 100 µM (inactive)
3. 26.4 µM (inactive)
4. > 100 µM (inactive)
5. 97.7 µM (inactive)
6. 57.4 µM (inactive)

Please state, for each entry, its recorded GI50.
1. O=C(NNc1ccccc1)c1ccc(Cl)c(Cl)c1
2. CCCCN1C(=O)C2Cc3c([nH]c4ccccc34)C(c3cccc(O)c3)N2C1=O (centres undefined)

-- reply
1: 18.2 µM (inactive); 2: 19 µM (inactive)

---

Test system: HCT-15
Endpoint label: GI50

# example entries with known answers
Compound | Endpoint label | Result
C=C(CO)CC(O)c1cc(OC)ccc1OC (stereo not drawn) | GI50 | > 100 µM
Cc1oc(N)c(S(=O)(=O)c2cc3ccccc3[n+]([O-])c2N)c1C | GI50 | > 100 µM

-- ask Item: CC1(c2nc3ccccc3[nH]2)CCC(C(N)=O)C(C)(C)O1 (stereo not drawn) Test system: HCT-15 Read-out: GI50 Value: ?
-- reply > 100 µM

---

Please respond with reported GI50 for every item in the list.
Tested on: BT-549
Assay info: NCI tumour cell line growth inhibition, 48 h
The source made the active and inactive calls. Cut-off read from the data, not from the text of the source: active = GI50 up to about 1.1 µM and inactive = higher.

Compound | Measurement target | GI50
C[C@H](Nc1nc(N)c(N=O)c(=O)n1C)C(=O)O | BT-549 | > 10 µM (inactive)
Cc1ccc(C(=O)N/N=C(\N=N\c2cccc([N+](=O)[O-])c2)c2ccc(N(CCC#N)CCC#N)cc2C)cc1 | BT-549 | 19.6 µM (inactive)
O=c1[nH]cc(NCCCl)c(=O)[nH]1 | BT-549 | > 100 µM (inactive)

For each of the items listed, what is its GI50?
1. C=CCC1(C)CCCN(Cc2ccccc2)C1=O (stereo not drawn)
2. CN(C)C(=S)SCc1ccccc1
3. COc1nc2ncc([C@@H](O)[C@H](O)CO)nc2c(=O)[nH]1
4. CN1COCc2c1ccc1cc3ccc4c(c3nc21)COCN4S(C)(=O)=O
5. CCC(=O)NC(Nc1cc(C)on1)(C(F)(F)F)C(F)(F)F

-- reply
1: > 10 µM (inactive); 2: 87.9 µM (inactive); 3: 99.1 µM (inactive); 4: > 100 µM (inactive); 5: > 100 µM (inactive)
